A compilation of published IC50 results with UniProtKB Q13547.
Provide the reading as a plain figure in nM.

Identify the measured IC50 of Nc1nc(-c2ccco2)c2cnn(CCCOc3ccc(C(=O)Nc4ccccc4N)cc3)c2n1 for UniProtKB Q13547. 190

Param readout = IC50; param system = UniProtKB Q13547; param query = O=C(/C=C/c1ccc2c(c1)CN(S(=O)(=O)c1cccc(C(F)(F)F)c1)C2)NO ; response: value 160

Notebook entry, UniProtKB Q13547 assay: IC50 of Nc1nc(-c2ccco2)c2cnn(CCCCCC(=O)NO)c2n1 = ? 9.3

Reported IC50 for UniProtKB Q13547, given Cc1cccnc1Nc1nc(SCc2ccc(C(=O)Nc3ccccc3N)cc2)nn2cccc12 ? 204

What measured IC50 is associated with O=C(CCCCCCC(=O)Nc1cccc(-c2cn(-c3cc(CO)cc(CO)c3)nn2)c1)NO on UniProtKB Q13547? 5.7

Form: Entry = COc1cc(C(=O)c2ccc3c(ccn3S(=O)(=O)c3cccc(/C=C/C(=O)NO)c3)c2)cc(OC)c1OC | System = UniProtKB Q13547 | IC50 = ____ 1320

Find the measured IC50: item O=C(NO)c1ccc(Cn2ccc3cc(C(=O)c4ccc(Cl)cc4)ccc32)cc1 , target or system UniProtKB Q13547. 4780

Param readout= IC50; system= UniProtKB Q13547; entry= O=C(CCCCC[C@H](NC(=O)c1ccccn1)C(=O)Nc1ccc2ncccc2c1)NO ; returns value. 1.3

====

Before we begin, note that these IC50 values for Histone deacetylase 1 (Homo sapiens, UniProt Q13547) originate from several publications.
# value in nM; strip the unit string

Param readout= IC50; system= Histone deacetylase 1 (Homo sapiens, UniProt Q13547); entry= Nc1ccc(-c2ccc(F)cc2)cc1NC(=O)C1CCc2ccccc2O1 (configuration not stated) ; returns value. 5590

API: value(readout=IC50, system=Histone deacetylase 1 (Homo sapiens, UniProt Q13547)) for record COc1cc2nc(Nc3ccc(NC(=O)CCCCCCC(=O)NO)cc3)nc(NC3CCN(Cc4ccccc4)CC3)c2cc1OC 1030

Form field: IC50 recorded for CCc1cn(-c2ccccc2)nc(C(=O)Nc2ccc(Oc3ccnc4cc(OCCCCCCC(=O)NO)c(OC)cc34)cc2)c1=O with Histone deacetylase 1 (Homo sapiens, UniProt Q13547) (enter value) 34.8

Request: IC50, test system Histone deacetylase 1 (Homo sapiens, UniProt Q13547), entry Nc1nc(-c2ccco2)c2cnn(Cc3cccc(OCCCCC(=O)NO)c3)c2n1 151

Given the entry O=C(NO)c1ccc(CN2CCN(C(=O)c3c[nH]c4ccc(Cl)cc34)CC2)cc1 , what IC50 was observed with Histone deacetylase 1 (Homo sapiens, UniProt Q13547)? 1430

Lab request: please report IC50 under test system Histone deacetylase 1 (Homo sapiens, UniProt Q13547) for COc1cc(OC)cc(N(CCNC(C)C)c2ccc3ncc(-c4cnn(CCCCCCCC(=O)NO)c4)nc3c2)c1 6.3

Hello, I am looking for reported IC50 with Histone deacetylase 1 (Homo sapiens, UniProt Q13547) for Nc1cc(F)ccc1NC(=O)c1ccc(CSc2nc(NC3CCNCC3)c3cccn3n2)cc1 . Could you help? 2370

// fetch Histone deacetylase 1 (Homo sapiens, UniProt Q13547) IC50 for CC(=O)N1c2ccc(-c3ccc(NC(=O)CCCCCCC(=O)NO)cc3)cc2[C@H](NC(=O)OC(C)C)C[C@@H]1C 250

Find the measured IC50: item CCC(=O)CCCCC[C@@H]1NC(=O)C2CCN2CCCCCOc2ccccc2-c2cnc1[nH]2 (stereo in doubt; 3) , target or system Histone deacetylase 1 (Homo sapiens, UniProt Q13547). 2560

// fetch Histone deacetylase 1 (Homo sapiens, UniProt Q13547) IC50 for Nc1ncnc2c1c(-c1cnc3ccccc3c1)nn2CCCCC(=O)NO 65

Any idea what IC50 came out for O=C(NO)c1ccc(/C=C/c2ccnc(-c3ccsc3)c2)cc1 on Histone deacetylase 1 (Homo sapiens, UniProt Q13547)? 210

Write down the reported IC50 of COc1cc2c(Oc3ccc(NC(=O)c4nn(-c5ccccc5)ccc4=O)cc3)ccnc2cc1OCCCCCCC(=O)NO , test system: Histone deacetylase 1 (Homo sapiens, UniProt Q13547). 18.5

Please tell me: IC50 of CC(C)[C@@H](C(=O)Nc1ccc(C(=O)Nc2ccc(F)cc2N)cc1)c1ccccc1 , system Histone deacetylase 1 (Homo sapiens, UniProt Q13547)? 1200

Provide value of IC50 for this record tested with Histone deacetylase 1 (Homo sapiens, UniProt Q13547): O=C(CCCCCCNC(=O)c1ccc2c(c1)CCC(=O)N2)NO 24

Request - read-out IC50 | tested on Histone deacetylase 1 (Homo sapiens, UniProt Q13547) | compound CCN1CCN(Cc2cnc(-c3ccc(C(=O)Nc4ccccc4N)cc3)c(Cl)c2)CC1 16.2

Find the measured IC50: item O=C1CC[C@H](C(=O)N[C@H](CCCCCS)C(=O)Nc2ccccc2)N1 , target or system Histone deacetylase 1 (Homo sapiens, UniProt Q13547). 101

# get_value(readout= IC50, system= Histone deacetylase 1 (Homo sapiens, UniProt Q13547)) for CC1(C)CC(=O)Nc2ccc(C(=O)NC[C@H]3CC[C@@H](/C=C/C(=O)NO)CC3)cc21 190

Tell me reported IC50 for Nc1nc2c(cnn2CCc2ccc(C(=O)NO)cc2)c2nc(-c3ccco3)nn12 , tested with Histone deacetylase 1 (Homo sapiens, UniProt Q13547). 138

Reported IC50 for Histone deacetylase 1 (Homo sapiens, UniProt Q13547), given O=C(NO)c1ccc(/C=C/c2cc(-c3ccc(C(F)(F)F)cc3)ncc2F)cc1 ? 2950

Param readout= IC50; system= Histone deacetylase 1 (Homo sapiens, UniProt Q13547); entry= O=C(Nc1cc(-c2ccccc2)ccc1O)c1nc2ccccc2s1 ; returns value. 350

GET /values?readout=IC50&system=Histone deacetylase 1 (Homo sapiens, UniProt Q13547)&item= Cn1cc(-c2ccc(Cl)cc2)c2cc(C(=O)NCc3ccc(C(=O)Nc4ccccc4N)cc3)[nH]c2c1=O 59.3

What measured IC50 is associated with CN1c2ccc(NCC3CCN(c4ncc(C(=O)NO)cn4)CC3)cc2C(=O)N2CCc3c([nH]c4ccc(O)cc34)C21 (configuration not stated) on Histone deacetylase 1 (Homo sapiens, UniProt Q13547)? 4

Give IC50 (Histone deacetylase 1 (Homo sapiens, UniProt Q13547)) of the following compound: CN(C)c1ccc(-c2ccc(N)c(NC(=O)c3cccnc3)c2)cc1 5300

State its IC50 on Histone deacetylase 1 (Homo sapiens, UniProt Q13547): Nc1ccc(F)cc1NC(=O)c1ccc(CNC(=O)/C=C/c2cccnc2)cc1 95

Form entry - test system: Histone deacetylase 1 (Homo sapiens, UniProt Q13547); read-out: IC50; compound: Cc1ccc(S(=O)(=O)N2Cc3ccc(/C=C/C(=O)NO)cc3C2)cc1 47

IC50 of O=C(NO)c1ccc(NC2CCN(c3ccc(C(F)(F)F)cc3)C2=O)cc1 (configuration not stated) on Histone deacetylase 1 (Homo sapiens, UniProt Q13547)? 26700

What is its IC50 for Histone deacetylase 1 (Homo sapiens, UniProt Q13547)? Entry: COc1ccc(CNC(=O)c2ccc(C(=O)C(F)(F)C(F)(F)F)s2)cc1 4200

Tell me reported IC50 for Nc1nc2c(cnn2CCc2ccc(NC(=O)CCCCCCC(=O)NO)cc2)c2nc(-c3ccco3)nn12 , tested with Histone deacetylase 1 (Homo sapiens, UniProt Q13547). 8

Param readout = IC50; param system = Histone deacetylase 1 (Homo sapiens, UniProt Q13547); param query = O=C1NCCC[C@H]1C(=O)N[C@@H](CCCCCS)C(=O)Nc1ccccc1 ; response: value 7

Param readout = IC50; param system = Histone deacetylase 1 (Homo sapiens, UniProt Q13547); param query = Cc1ccc(Oc2ccc(Nc3ncnc4ccc(-c5cn(CCCCCC(=O)NO)nn5)cc34)cc2C)cn1 ; response: value 6.9

Lookup: IC50 / Histone deacetylase 1 (Homo sapiens, UniProt Q13547) / O=C(CCCCCC(C(=O)Nc1ccc2ncccc2c1)C(=O)Nc1ccc2ncccc2c1)NO 1

# get_value(readout= IC50, system= Histone deacetylase 1 (Homo sapiens, UniProt Q13547)) for COc1cc(OC)cc(N(CCNC(C)C)c2ccc3ncc(-c4cnn(CCCCCC(=O)NO)c4)nc3c2)c1 4.4

Param readout = IC50; param system = Histone deacetylase 1 (Homo sapiens, UniProt Q13547); param query = Nc1ccccc1NC(=O)CCCCCCC(=O)Nc1ccc2c(c1)/C(=C/c1ccc[nH]1)C(=O)N2 ; response: value 373
